# system: T1, A199 N-terminal neo-epitope peptide AGQPLQ-Acp-C (SEQ ID NO:51) conjugated to BSA (human, not fully specified (residue 8); printed as AGQPLQ-Acp-C; also: C-terminal Cys conjugated to BSA carrier)
# T1 construct: BSA carrier; also called A199-BSA peptide
# T1 peptide: AGQPLQ[Ahx]C
# assay overview: direct ELISA, A199-BSA peptide coated at 1 µg/ml
Non-standard residues stand in square brackets, D forms with d. No end group written: not given here. Ahx = NCCCCCC(=O)O
endpoint: EC50 (ng/mL)
One number for each entry, in ng/mL.

Give its EC50 value. Item: 63F6, monoclonal anti-A199 antibody (antibody, IgG2b, V domains shown) VH: QVQLQQPGTELVKPGASVKLSCKASGYTFTNYWMHWVKQRPGQGLEWIGNINPRNGGTNYNEKFKSKATLTVDKSSSTDYMQLSSLTSEDSAVYYCARGLYDYDFDYWGQGTTLTVSS VL: DVLMTQTPLSLPVSLGDQASISCRSSQSIVHGNGNTYLQWFLQKPGQSPKLLIYKVSSRFSGVPDRFSGSGSGTDFTLKISRVEAEDLGVYYCFQGSHVPFTFGSGTKLEIK
3.8
